target: T1, Cynomolgus monkey FcRn-alpha (cynomolgus monkey, UniProt Q8SPV9 24-297, limits assumed); assay: ELISA: cynoFcRn coated, antibody titrated, goat anti-human IgG Fab-HRP, OD450
T1 construct: The printed entry looks like the full-length precursor (signal peptide, transmembrane and cytoplasmic parts); also called cynoFcRn; not shown: His tag and Avi tag
T1 sequence (Q8SPV9 24-297 limits assumed): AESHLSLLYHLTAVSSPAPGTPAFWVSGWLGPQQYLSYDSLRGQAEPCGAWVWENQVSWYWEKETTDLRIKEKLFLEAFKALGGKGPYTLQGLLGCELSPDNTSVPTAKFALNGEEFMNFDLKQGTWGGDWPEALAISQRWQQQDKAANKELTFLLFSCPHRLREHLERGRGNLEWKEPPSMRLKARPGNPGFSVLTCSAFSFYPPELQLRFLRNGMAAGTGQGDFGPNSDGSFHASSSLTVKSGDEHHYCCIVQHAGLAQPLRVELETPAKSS
Catalogue of EC50 (read off the curve) values

For orientation, consider the following solved cases.
ZLP22 (antibody, V domains shown, Full-length chimeric antibody; human kappa or lambda light constant domain) VH: EVKLVESGAELARPGASVKMSCKASGYTFTSYAMHWVKQRPGQGLEWIGYINPSSGYTNYNQKFKDKATLTADKSSSTAYMQLSSLTSEDSAVYYCARKGLRYAVDYWGQGTSVTVSS VL: DIVMTQSPSSLSVSAGEKVTMSCKSSQSLLNSGNQKNYLAWYQQKPGQPPKLLIYGASTRESGVPDRFTGSGSGTDYTLTISSVQAEDLALYYCQQHYSTPYTFGGGTKLEIK
~0.8 nM
ZLP44 (antibody, V domains shown, Full-length chimeric antibody; human kappa or lambda light constant domain) VH: EVQLQQSGPELVKPGASVKVSCKASGYIFTSYNMYWMKQSHGKSLEWIGYIDPYNGGTRYNQKFKGKATLTVDKSSSTAYMHLNSLTSEDSAVYYCAVDGYNGAMDYWGQGTSVTVSS VL: QIVLTQSPASLAVSLGQRATISCRASESVDSYGNSFMHWYQQKPGQPPKLLIYRASNLESGIPARFSGSGSRTDFTLTINPVEADDVATYYCQQSNEDPYTFGGGTKLEIK
~0.1 nM
Rozanolixizumab (antibody, part only; not given: Constant regions, V domains shown, not shown: another chain or arm of the molecule) VH: EVPLVESGGGLVQPGGSLRLSCAVSGFTFSNYGMVWVRQAPGKGLEWVAYIDSDGDNTYYRDSVKGRFTISRDNAKSSLYLQMNSLRAEDTAVYYCTTGIVRPFLYWGQGTLVTVSS VL: DIQMTQSPSSLSASVGDRVTITCKSSQSLVGASGKTYLYWLFQKPGKAPKRLIYLVSTLDSGIPSRFSGSGSGTEFTLTISSLQPEDFATYYCLQGTHFPHTFGQGTKLEIK
0.2 nM
ZLP17 (antibody, V domains shown, Full-length chimeric antibody with human IgG1 or IgG4 heavy constant and human kappa or lambda light constant domain) VH: QIQLLQSGAELARPGASVKMSCKASGYTFTSYTMHWVKQRPGQGLEWIGYINPSSGYTNYNQKFKDKATLTADKSSSTAYMQLSSLTSEGSAVYYCARSGLRRVLDYWGQGTSVTVSS VL: ENVLTQSPAILSASPGEKVTMTCSASSSVSYMYWYQQKPGSSPRLLIYDTSNLASGVPVRFSGSGSGTSYSLTISRMEAEDAATYYCQQWSSYPRTFGGGTKLEIK
~7 nM
ZLP198 (antibody, V domains shown, Full-length chimeric antibody with human IgG1 or IgG4 heavy constant and human kappa or lambda light constant domain) VH: EVKLMESGPDLVKPSQSLSLTCTVTGYSITSGYSWHWIRHFPGKKLEWMGYIHNSGSTNYNPSLKSRISISRETSKNQFFLQLNSVTTEDTATYYCAREGYGGYWYFDVWGAGTSVTVSS VL: DIVLTQSPAIMSASPGEKVTMTCSASSSVSYMYWYQQKPGSSPKPWIYGTSNLASGVPVRFSGSGSGTSYSLTISRMEAEDAATYYCQQRSSYPYTFGGGTKLEIK
~6 nM

Data request, read-out EC50 (read off the curve), for ZLP64 (antibody, V domains shown, Full-length chimeric antibody; human kappa or lambda light constant domain) VH: QIQLLQSGPELVKPGASVKVSCKASGYIFTSYNMYWMKQSHGKSLEWIGYIDPYNGGTNYNQKFKGKATLTVDKSSSTAYMHLNSLTSEDSAVYYCAVDGYNGAMDYWGQGTSVTVSS VL: DIVLTQSPASLTVSLGQRATISCRASESVDRYGNSFMHWYQQKPGQPPKLLIYRASNLESGVPARFSGSGSRTDFTLTINPVEADDVASYYCQQSNEDPLTFGAGTKLELK
~0.08 nM

What value of measured EC50 (read off the curve) is listed for ZLP193 (antibody, V domains shown, Full-length chimeric antibody: mouse variable domains with human IgG1 or IgG4 heavy constant domain and human kappa or lambda light constant domain; also called chimeric anti-FcRn antibody ZLP193) VH: EVQLQESGPDLVKPSQSLSLTCTVTGYSFTSGYSWHWIRQFPGNRLEWMGYIHDSGGTNYNPSLKSRISITRDTSKNQFFLQLNSVTTEDTATYYCAREENYRYFDVWGAGTTVTVSS VL: DIQMMQSPAIMSASPGEKVTITCSASSSVSYMHWFQQKPGTSPKLWIYSTSNLASGVPARFSGSGSGTSYSLTISRMEAEDAATYYCQQRSSYPPTFGDGTRLEIK ?
~0.3 nM

Any idea what its EC50 (read off the curve) is? The binder is ZLP37 (antibody, V domains shown, Full-length chimeric antibody with human IgG1 or IgG4 heavy constant and human kappa or lambda light constant domain) VH: EVQLQQSGVELARPGASVKMSCKASGYTFSSYAMQWVKKRPGQGLEWIGYINPGTGYTNYNQKFKDKATLTADKSSSTAYMHLSSLTSEDSAVYFCARGGGLRGAMDYWGQGTSVTVSS VL: DIVLTQSPALMSASPGEKVTMTCSANSSVNYMYWYQQKPGSSPKLWIYSTSNLASGVPARFSGSGSGTSYSLTISSMEAEDAATYYCHQRSSYPWTFGGGTKLEIK
~6 nM
